# Tested on: IgE antibodies of allergic patients
# test: EAST inhibition test (IgE reactivity / allergenicity)
# Type: binding, human
# conditions: individual allergic patient serum II/3; read-out: Inhibition value 50% (concentration of the inhibitor at 50% inhibition)
# Procedure: The effects of the induced mutations on the allergenicity, i.e. the ability to bind to the IgE antibodies of allergic patients, of the modified recombinant allergens is determined qualitatively and quantitatively by means of the EAST inhibition test. […] The extent of the immunochemical relatedness (cross reactivity) can also be quantified. This EAST inhibition test only takes the reaction with IgE antibodies into account. […]
recorded.metric: IC50 (µM)
// note: answer is a bare numeric in µM

For record rPhl p 5b point mutant PM3 (A13C) (protein) ADAGYAPATPAACGAAAGKATTEEQKLIEDINVGFKAAVAAAASVPAADKFKTFEAAFTSSSKAAAAKAPGLVPKLDAAYSVAYKAAVGATPEAKFDSFVASLTEALRVIAGALEVHAVKPVTEEPGMAKIPAGELQIIDKIDAAFKVAATAAATAPADDKFTVFEAAFNKAIKESTGGAYDTYKCIPSLEAAVKQAYAATVAAAPQVKYAVFEAALTKAITAMSEVQKVSQPATGAATVAAGAATTAAGAASGAATVAAGGYKV the listed IC50 is 0.015
